method-summary: Antiasthamic activity in Wistar rat tracheal ring assessed as reversal of carbachol-induced contraction
Type: functional
condition-context: Trachea
readout-type: EC50 (µM)
Please reply with the bare figure in µM and do not write the unit itself.

> print(dat)
                  structure  readout.type  unit.spec  reported.result
1  CCOc1cc2ccc(=O)oc2cc1OCC          EC50         µM               42
2      COc1ccc2ccc(=O)oc2c1          EC50         µM              244

**Q:** Record request: EC50 value, item Cn1c(=O)c2nc[nH]c2n(C)c1=O
**A:** 144

// data source = ChEMBL document CHEMBL3259518
